These entries and their values trace back to ChEMBL document CHEMBL3885881.

- Species on record: Rattus norvegicus
- assay-overview: DrugMatrix - Regimen: Daily Repeat
- Type: toxicity, organism-based, Sprague-Dawley
- Parameters: regimen Daily Repeat, gender Male, age 6-8 weeks
- reported-conditions: in vivo, po, 0 mg/kg, 120 h, tissue Blood, route oral GAVAGE, dose level Control, time 5 day, vehicle 100 % WATER
Kindly apply the following: Yes if ABSOLUTE MONOCYTE is less than 70 CELLS/uL, No in every other case.

{"columns": ["compound", "label-value"],
 "data": [
  ["C1CCN2C[C@@H]3C[C@@H](CN4CCCC[C@@H]34)[C@H]2C1", "No"],
  ["Cc1cc(C(C)(C)C)c(O)c(C)c1CC1=NCCN1", "No"],
  ["NN [HYDRAZINE]", "No"],
  ["CCC1(c2ccccc2)C(=O)NC(=O)NC1=O", "Yes"],
  ["CCN(CC)C(=S)SSC(=S)N(CC)CC", "No"],
  ["CC(Cl)(Cl)Cl", "No"]
]}
